assay_explanation: Example 7 Part I: single rising oral dose pharmacokinetics of NC-758 (Table 3 tablet), plasma 3-APS by LC-MS/MS
Type: in vivo, human
setup_conditions: human, plasma; 300 mg single oral, young (18-45 years) male, fasted; median
Procedure: In the following examples and elsewhere herein, terms are as defined below. […] Part I—The pharmacokinetic profile and the effect of food on single rising oral doses of 3-APS free acid (modified-release enteric-coated tablet, as described in Table 3 above, hereinafter “NC-758”) in healthy male young (18-45 years) volunteers is determined. […] The pharmacokinetics of a single oral dose of NC-758 is also determined in a group of healthy male elderly (≧55 years old) volunteers. […]
metric: Tmax (h)
Could you give me the number in h? Just the number is fine.

Would you kindly share the measured Tmax for `NCCCS(=O)(=O)O` ?
5

###

assay_explanation: Example 8 Part I: multiple rising oral dose pharmacokinetics of NC-758
Type: in vivo
setup_conditions: male, human, plasma, 100 mg, 100 mg BID, Day 1, young (18-45 years) male, fasted, mean
metric: Cmax (ng/mL)
# number only, unit ng/mL dropped from output

Which value of Cmax has been reported for `NCCCS(=O)(=O)O` in the records?
282

###

assay_explanation: Example 7 Part II: food effect on single 200 mg oral dose pharmacokinetics (Table 3 formulation)
Format: in vivo, human
setup_conditions: human, plasma; 200 mg single oral, young male, Fed Arm (high fat); mean
From the text: In the following examples and elsewhere herein, terms are as defined below. The pharmacokinetic parameters were derived by non-compartmental analysis using WinNonlin° (Pharsight Corporation, Mountain View, Calif.) or SAS® for Windows® (SAS Institute Inc., Cary, N.C.). […]
metric: AUC(0-inf) (ng·h/mL)
Give just the numeric value; ng·h/mL need not be written.

AUC(0-inf) lookup needed for NCCCS(=O)(=O)O [3-APS, 3-amino-1-propanesulfonic acid] , thanks.
4500

###

assay_explanation: Example 7 Part I: single rising oral dose pharmacokinetics of NC-758 (Table 3 tablet), plasma 3-APS by LC-MS/MS
Format: in vivo, human
setup_conditions: human, plasma; 400 mg single oral, young (18-45 years) male, fasted; median
metric: Tmax (h)
Note: unit h is implicit; provide only the numeric part.

What value of measured Tmax is listed for NCCCS(=O)(=O)O [3-APS, 3-amino-1-propanesulfonic acid] ?
2

###

assay_explanation: Example 9 Part II: food effect on single 100 mg oral dose pharmacokinetics in elderly (Table 5 formulation)
Assay type: in vivo
setup_conditions: both sexes, human, plasma; 100 mg single oral, elderly male and female, Fasting Arm; median
metric: Tmax

Name the recorded Tmax for NCCCS(=O)(=O)O [3-APS, 3-amino-1-propanesulfonic acid] .
5 h
